These measurements were taken from patent US20050107289A1.

- System: Bacillus cereus ATCC 11778
- Assay type: cell-based
Non-standard residues stand in square brackets, D forms with d. Residues, ends and D or L forms follow the SMILES beside them.
observable: B. cerius MIC (µg/mL)
Numeric only. Scale: µg/mL

Prompt line: Which B. cerius MIC value belongs to CC(C)C[C@H]1NC(=O)[C@H](Cc2c[nH]c3ccccc23)NC(=O)[C@@H](CCCNC(=N)N)NC(=O)[C@H](CCCNC(=N)N)NC(=O)[C@@H](CC(C)C)NC(=O)[C@H](Cc2c[nH]c3ccccc23)NC1=O [SEQ ID NO:115, [RRWLWL]] (cyclo(R[dR]W[dL]W[dL])) ?
Response line: 24

Prompt line: // returns reported B. cerius MIC for input CC(C)C[C@H]1NC(=O)[C@H](Cc2c[nH]c3ccccc23)NC(=O)[C@@H](CCCCN)NC(=O)[C@H](CCC(N)=O)NC(=O)[C@@H](CCCCN)NC(=O)[C@H](Cc2c[nH]c3ccccc23)NC(=O)[C@@H](CC(C)C)NC(=O)[C@H](Cc2c[nH]c3ccccc23)NC1=O [SEQ ID NO:11] (cyclo([dK]Q[dK]W[dL]W[dL]W))
Response line: 7

Prompt line: Returns the measured B. cerius MIC for the input molecule. Input: CC(C)C[C@H]1NC(=O)[C@H](Cc2c[nH]c3ccccc23)NC(=O)[C@@H](CCCCN)NC(=O)[C@H](CCCNC(=N)N)NC(=O)[C@@H](CCCCN)NC(=O)[C@H](Cc2c[nH]c3ccccc23)NC(=O)[C@@H](CC(C)C)NC(=O)[C@H](Cc2c[nH]c3ccccc23)NC1=O [SEQ ID NO:19, D-Lys-Arg-D-Lys-Trp-D-Leu-Trp-D-Leu-Trp] (cyclo([dK]R[dK]W[dL]W[dL]W))
Response line: 3

Prompt line: Give the measured B. cerius MIC of CC(C)C[C@H]1NC(=O)[C@H](Cc2c[nH]c3ccccc23)NC(=O)[C@@H](CCCCN)NC(=O)[C@H](CCCNC(=N)N)NC(=O)[C@@H](CCCNC(=N)N)NC(=O)[C@H](Cc2c[nH]c3ccccc23)NC(=O)[C@@H](CC(C)C)NC(=O)[C@H](CCC(=O)O)NC1=O [SEQ ID NO:109, [RRKWLELW]] (cyclo([dR]R[dK]W[dL]E[dL]W)) .
Response line: 195
